Recorded Activity by entry
Tested on: HepG2
Assay: Transfection of CDP/plasmid pGL3-CV in HepG2 cells at 150 uM after 48 hrs by luciferase assay
Type: functional, Homo sapiens
Reply numerically in RLU/mg, unit not repeated.

Solved entries (count: 3):
Compound	Unit name	Measured result
CC(Nc1ccnc2cc(Cl)ccc12)C(=O)O (centres undefined)	RLU/mg	4300000
CN(C)CCNc1ccnc2cc(Cl)ccc12	RLU/mg	25000000
NCCN(CCN)CCNc1ccnc2cc(Cl)ccc12	RLU/mg	25000000

The compound CC(C)CCCC(C)Nc1ccnc2cc(Cl)ccc12 (centres undefined) showed Activity equal to 4700000
